Here the recorded IC50 is given for each entry.
measurement target: human NET (Homo sapiens, UniProt P23975)
Sequence (P23975 whole entry): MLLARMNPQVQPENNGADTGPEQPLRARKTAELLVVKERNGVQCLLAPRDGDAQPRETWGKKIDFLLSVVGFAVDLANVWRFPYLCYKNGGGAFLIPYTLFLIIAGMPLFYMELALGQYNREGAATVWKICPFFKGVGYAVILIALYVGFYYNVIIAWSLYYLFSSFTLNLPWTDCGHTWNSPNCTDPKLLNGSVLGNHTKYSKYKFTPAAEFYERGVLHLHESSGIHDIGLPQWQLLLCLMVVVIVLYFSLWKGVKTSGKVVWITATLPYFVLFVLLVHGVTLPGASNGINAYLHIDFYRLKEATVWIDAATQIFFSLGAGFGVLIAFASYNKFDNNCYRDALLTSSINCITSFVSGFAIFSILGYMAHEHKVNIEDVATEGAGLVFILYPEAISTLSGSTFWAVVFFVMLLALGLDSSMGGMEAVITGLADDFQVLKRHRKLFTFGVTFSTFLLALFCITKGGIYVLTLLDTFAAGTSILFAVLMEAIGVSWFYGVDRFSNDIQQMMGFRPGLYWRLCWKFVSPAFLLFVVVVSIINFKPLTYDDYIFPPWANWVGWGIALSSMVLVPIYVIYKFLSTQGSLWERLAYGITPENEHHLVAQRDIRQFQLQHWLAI
protocol details: NET transporter inhibitory activity test (neurotransmitter transporter uptake assay kit)
Assay type: cell-based
Where a name gives a salt, the structure may show the parent alone.
Respond numerically; units are µM and should not be typed.

Here are 3 compounds together with their reported answers.
>  <compound>
Nc1nc2c(s1)CC(c1cccc(Cl)c1)(N1CCCCC1)CC2 (racemic) [rac-A49]

>  <IC50 / µM>
2.5

$$$$
>  <compound>
NC1(c2ccccc2)CCc2[nH]ncc2C1 (racemic) [rac-A65]

>  <IC50 / µM>
7

$$$$
>  <compound>
c1ccc2cc([C@]34CNC[C@H]3C4)ccc2c1 [Centanafadine, centanafadine, reference compound]

>  <IC50 / µM>
0.03

$$$$

## Input # get_value(readout='IC50', item= CNC1(c2ccc(C(F)(F)F)cc2)CCc2nc(N)sc2C1 (racemic) [rac-A96, hydrobromide] )
## Output 14

* * *

protocol details: In vivo metabolism (pharmacokinetic) experiment in mice
Design: species or system male ICR mice
assay context: male, ICR, mouse, po, 10 mg/kg, Cmax (po) (ng/mL)
measurement type: Cmax (ng/mL)
Just the number in ng/mL, nothing appended.

## Input Query (compound): CNC1(c2ccccc2)CCc2nc(N)sc2C1 (racemic) ; field requested: Cmax
## Output 330

* * *

protocol details: In vivo metabolism (pharmacokinetic) experiment in mice
Set-up: species or system male ICR mice
assay context: male, ICR, mouse, po, 10 mg/kg, male ICR mice, oral 10 mg/kg, plasma, read-out: AUC0-inf(po)
Cut-off 3000 ng·h/mL on AUC(0-inf): below means Y, at or above means N.

// known answers, use as guide
>  <compound>
Nc1nc2c(s1)CC(N)(c1ccccc1)CC2 (racemic) [rac-A1]

>  <category label>
Y

$$$$
>  <compound>
CNC1(c2ccccc2)CCCc2sc(N)nc21 (racemic) [rac-A38]

>  <category label>
Y

$$$$
>  <compound>
O=C(O)c1cc2c(s1)CCC(c1ccccc1)(N1CCOCC1)C2 (racemic) [rac-A46]

>  <category label>
N

$$$$

## Input Below 3000 ng·h/mL on AUC(0-inf)? Entry NC1(c2ccccc2)CCc2ncsc2C1 (racemic) [rac-A14]
## Output Y

## Input Identify whether the compound Nc1nc2c(s1)CCCC2(N)c1ccccc1 (racemic) [rac-A35] records AUC(0-inf) below 3000 ng·h/mL.
## Output N

## Input Quick check: AUC(0-inf) of CCNC1(c2ccccc2)CCc2nc(N)sc2C1 (racemic) [rac-A5] under 3000 ng·h/mL?
## Output Y

## Input Quick check: does CCCNC1(c2ccccc2)CCc2nc(N)sc2C1 (racemic) [rac-A7] have AUC(0-inf) under 3000 ng·h/mL?
## Output Y

* * *

protocol details: In vivo metabolism (pharmacokinetic) experiment in mice
Parameters: species or system male ICR mice
assay context: male, ICR, mouse, po, 10 mg/kg, male ICR mice, oral 10 mg/kg, plasma, read-out: Cmax (po)
measurement type: log10(Cmax) (log10 of the value in ng/mL)
Values reflect log10 of reported Cmax (ng/mL).

Known results for compounds:
>  <compound>
CCNC1(c2ccccc2)CCc2nc(N)sc2C1 (racemic) [rac-A5]

>  <log10(Cmax)>
2.40

$$$$
>  <compound>
NC1(c2ccccc2)CCc2ncsc2C1 (racemic) [rac-A14]

>  <log10(Cmax)>
3.16

$$$$
>  <compound>
O=C(O)c1cc2c(s1)CCC(c1ccccc1)(N1CCOCC1)C2 (racemic) [rac-A46]

>  <log10(Cmax)>
3.43

$$$$
>  <compound>
Nc1nc2c(s1)CCCC2(N)c1ccccc1 (racemic) [rac-A35]

>  <log10(Cmax)>
3.06

$$$$
>  <compound>
CCCNC1(c2ccccc2)CCc2nc(N)sc2C1 (racemic) [rac-A7]

>  <log10(Cmax)>
2.32

$$$$

## Input I am curious: what log10(Cmax) value has been reported for CNC1(c2ccccc2)CCCc2sc(N)nc21 (racemic) [rac-A38] ?
## Output 2.56

## Input Any idea what its log10(Cmax) is? The compound is Nc1nc2c(s1)CC(N)(c1ccccc1)CC2 (racemic) [rac-A1]
## Output 2.62

* * *

measurement target: UniProt P23975
protocol details: NET transporter inhibitory activity test (neurotransmitter transporter uptake assay kit)
Type: cell-based
Binarize IC50 at 0.8 µM; below is rule met, at or above is rule not met.

Solved entries:
>  <compound>
Nc1nc2c(s1)CC(NCC1CC1)(c1ccccc1)CC2 (racemic)

>  <category label>
rule not met

$$$$
>  <compound>
Nc1nc2c(s1)CC(c1cccc(Cl)c1)(N1CCCC1)CC2 (racemic)

>  <category label>
rule met

$$$$
>  <compound>
CN(C)C1(c2ccccc2)CCc2nc(N)sc2C1 (racemic)

>  <category label>
rule not met

$$$$
>  <compound>
Nc1nc2c(s1)CC(N)(c1cccc(F)c1)CC2 (racemic)

>  <category label>
rule not met

$$$$

Now let's try a different one.
## Input # strict comparison: is reported IC50 < 0.8 µM? input = CCNC1(c2ccccc2)CCc2nc(N)sc2C1 (racemic)
## Output rule not met

* * *

measurement target: UniProt Q5BJF2
Sequence (Q5BJF2 whole entry, species assumed): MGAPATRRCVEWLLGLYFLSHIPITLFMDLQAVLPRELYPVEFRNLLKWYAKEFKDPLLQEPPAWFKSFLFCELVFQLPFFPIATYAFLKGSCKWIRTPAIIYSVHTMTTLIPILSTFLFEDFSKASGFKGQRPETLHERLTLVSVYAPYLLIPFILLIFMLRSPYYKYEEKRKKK
protocol details: Sigma receptor affinity assay ([3H]-DTG binding), Sigma2R
measurement type: Ki (nM)
Numbers only here, please. The scale is nM.

>  <compound>
NC1(c2ccccc2)CCc2ccsc2C1 (racemic) [rac-A19]

>  <measure unit>
nM

>  <Ki>
523

$$$$

## Input Requested read-out: Ki. Entry: CNC1(c2ccccc2)CCc2ncsc2C1 (racemic) [rac-A13]
## Output 308

* * *

Recorded pIC50, one value per entry.
measurement target: UniProt:Q01959
protocol details: DAT transporter inhibitory activity test (neurotransmitter transporter uptake assay kit)
Format: cell-based
assay context: DAT stably transfected HEK cells; read-out: DAT (IC50)
// pIC50 here means minus log10 of the molar concentration (mol/L)

Some solved entries appear below for comparison.
>  <molecule>
CNCC1(c2ccccc2)CCc2nc(N)sc2C1 (racemic)

>  <measurement target>
UniProt:Q01959

>  <measurement type>
pIC50

>  <experimental value>
5.02

$$$$
>  <molecule>
Clc1cccc(C2(N3CCCCC3)CCc3nnsc3C2)c1 (racemic)

>  <measurement target>
UniProt:Q01959

>  <measurement type>
pIC50

>  <experimental value>
5.57

$$$$
>  <molecule>
Nc1nc2c(s1)C[C@@](c1ccccc1)(N1CCCC1)CC2

>  <measurement target>
UniProt:Q01959

>  <measurement type>
pIC50

>  <experimental value>
5.62

$$$$
>  <molecule>
CN(C)C1(c2cccc(O)c2)CCc2nc(N)sc2C1 (racemic)

>  <measurement target>
UniProt:Q01959

>  <measurement type>
pIC50

>  <experimental value>
6.62

$$$$

## Input Could you tell me which pIC50 is on file for CCOc1cccc([C@]2(N)CCc3nc(N)sc3C2)c1 ?
## Output 5.74

## Input Return reported pIC50; argument: NC1(c2cccc(O)c2)CCc2nc(NCC(F)(F)F)sc2C1 (racemic)
## Output 4.74

## Input Quick one: pIC50 for CNC1(c2ccc(Cl)cc2)CCc2nc(N)sc2C1 (racemic) ?
## Output 5.49

## Input Fill in: pIC50 of c1ccc(C2(N3CCOCC3)CCc3sccc3C2)cc1 (racemic) is ___
## Output 5.89

## Input Item CN(C)C1(c2ccccc2F)CCc2nc(N)sc2C1 (racemic) has what recorded pIC50?
## Output 5.20

## Input Need pIC50, item COc1cc(C2(N)CCc3nc(N)sc3C2)ccn1 (racemic)
## Output 4.85

* * *

protocol details: In vivo metabolism (pharmacokinetic) experiment in mice
Design: species or system male ICR mice
assay context: mouse, male ICR mice, oral 10 mg/kg vs iv 2.5 mg/kg, read-out: F (%)
Reported bioavailability is given for each of the following molecules.
Give a bare numeral; the unit % is implied.

Recorded results for 4 molecules are shown here.
>  <molecule>
NC1(c2ccccc2)CCCc2sccc21 (racemic)

>  <experimental value>
41

$$$$
>  <molecule>
NC1(c2ccccc2)CCc2ccsc2C1 (racemic)

>  <experimental value>
48

$$$$
>  <molecule>
Nc1nc2c(s1)CC(c1ccccc1)(N1CCCC1)CC2 (racemic)

>  <experimental value>
38

$$$$
>  <molecule>
CNC1(c2ccccc2)CCc2[nH]ncc2C1 (racemic)

>  <experimental value>
132

$$$$

Now look at this entry.
## Input Please report the recorded bioavailability for CNC1(c2ccccc2)CCc2ncsc2C1 (racemic) .
## Output 78

* * *

measurement target: human DAT (Homo sapiens)
Sequence (Q01959 whole entry): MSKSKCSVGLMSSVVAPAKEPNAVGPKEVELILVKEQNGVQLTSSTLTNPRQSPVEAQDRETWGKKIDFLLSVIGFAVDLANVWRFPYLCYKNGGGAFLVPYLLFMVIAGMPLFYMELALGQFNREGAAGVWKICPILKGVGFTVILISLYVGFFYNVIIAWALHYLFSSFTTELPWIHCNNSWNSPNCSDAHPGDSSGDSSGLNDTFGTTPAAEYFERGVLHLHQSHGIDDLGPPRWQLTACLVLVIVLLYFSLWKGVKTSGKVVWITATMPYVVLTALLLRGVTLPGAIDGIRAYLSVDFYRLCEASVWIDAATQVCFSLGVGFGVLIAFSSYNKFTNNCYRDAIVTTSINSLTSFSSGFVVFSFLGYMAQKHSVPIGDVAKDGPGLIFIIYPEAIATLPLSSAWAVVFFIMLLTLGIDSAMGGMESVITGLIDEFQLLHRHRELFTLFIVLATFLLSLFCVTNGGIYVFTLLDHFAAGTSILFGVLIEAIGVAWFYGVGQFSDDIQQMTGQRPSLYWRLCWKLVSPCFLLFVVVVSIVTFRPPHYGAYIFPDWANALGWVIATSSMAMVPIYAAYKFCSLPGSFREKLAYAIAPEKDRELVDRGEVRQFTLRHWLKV
protocol details: DAT transporter inhibitory activity test (neurotransmitter transporter uptake assay kit)
Assay type: cell-based
assay context: DAT stably transfected HEK cells; read-out: DAT (IC50)
Please respond with met when measured IC50 is strictly beneath 2000 nM, and with not met in all other cases.

// known answers, use as guide
>  <compound>
c1ccc([C@@]2(N3CCCCC3)CCc3[nH]ncc3C2)cc1

>  <measurement target>
human DAT (Homo sapiens)

>  <category label>
not met

$$$$
>  <compound>
Nc1nc2c(s1)CC(NCC1CC1)(c1ccccc1F)CC2 (racemic)

>  <measurement target>
human DAT (Homo sapiens)

>  <category label>
not met

$$$$
>  <compound>
Nc1nc2c(s1)CC(c1cccc(Cl)c1)(N1CCCCC1)CC2 (racemic)

>  <measurement target>
human DAT (Homo sapiens)

>  <category label>
met

$$$$
>  <compound>
N[C@@]1(c2ccccc2)CCc2ncsc2C1

>  <measurement target>
human DAT (Homo sapiens)

>  <category label>
not met

$$$$
>  <compound>
CC(C)Oc1cccc(C2(N)CCc3nc(N)sc3C2)c1 (racemic)

>  <measurement target>
human DAT (Homo sapiens)

>  <category label>
not met

$$$$
>  <compound>
CNC1(c2cccnc2)CCc2nc(N)sc2C1 (racemic)

>  <measurement target>
human DAT (Homo sapiens)

>  <category label>
not met

$$$$
>  <compound>
COc1cccc(C2(N(C)C)CCc3nc(N)sc3C2)c1 (racemic)

>  <measurement target>
human DAT (Homo sapiens)

>  <category label>
met

$$$$
>  <compound>
Nc1nc2c(s1)CC(c1ccccc1)(N1CCCC1)CC2 (racemic)

>  <measurement target>
human DAT (Homo sapiens)

>  <category label>
met

$$$$

## Input Say whether its IC50 is strictly beneath 2000 nM. Entry: c1ccc(C2(N3CCCC3)CCc3nnsc3C2)cc1 (racemic)
## Output not met
